- protocol.summary: Half life in mouse liver microsomes assessed as compound degradation at 1 uM by LC-MS analysis in presence of NADPH and UDPGA
- Assay type: ADME, Microsome
- condition: liver microsomes

structure.smiles.string: COc1cc(/C=C/C(C)=O)ccc1OCc1cn(-c2ccnc3cc(Cl)ccc23)nn1
half-life at 1 µM, min: 6.2
--
structure.smiles.string: COc1cc(/C=C/C(C)=O)ccc1OCCN1CCN(c2ccnc3cc(Cl)ccc23)CC1
half-life at 1 µM, min: 5.6
--
structure.smiles.string: COc1ccc(C(=O)/C=C/c2ccc(OCCN3CCN(c4ccnc5cc(Cl)ccc45)CC3)c(OC)c2)c(OC)c1
half-life at 1 µM, min: 9.8

Origin of the recorded values: ChEMBL document CHEMBL1773006
